# protocol.details: Selectivity index, ratio of IC50 for antiproliferative activity against human HEK293T cells to IC50 for antiplasmodial activity against erythrocytic stage of chloroquine-sensitive Plasmodium falciparum 3D7
# Assay type: toxicity, cell-based
# assay.conditions: read-out: Ratio IC50
Listed below: selectivity ratio values for each entry.

- compound: "COc1cc(NC(C)CCCNC(=O)NCCOc2ccc3[nH]c4c(C)nccc4c3c2)c2ncccc2c1 (centres undefined)"
  inequality.symbol: "="
  selectivity ratio: 1.1
- compound: "COc1cc(NC(C)CCCn2cc(COc3ccc4c(c3)[nH]c3c(C)nccc34)nn2)c2ncccc2c1 (centres undefined)"
  inequality.symbol: "="
  selectivity ratio: 36
- compound: "COc1cc(NC(C)CCCN)c2ncccc2c1 (centres undefined)"
  inequality.symbol: "="
  selectivity ratio: 7.7
- compound: "COc1cc(NC(C)CCCNC(=O)NCc2cc3c([nH]c4ccccc43)c(C)n2)c2ncccc2c1 (centres undefined)"
  inequality.symbol: ">"
  selectivity ratio: 20.8
